Here, each record is paired with measured In vitro activity compared to native peptide (%) vs Glucagon data.
- MEASUREMENT_TARGET: human GCG receptor (human, UniProt P47871 26-477)
- Sequence (P47871 26-477): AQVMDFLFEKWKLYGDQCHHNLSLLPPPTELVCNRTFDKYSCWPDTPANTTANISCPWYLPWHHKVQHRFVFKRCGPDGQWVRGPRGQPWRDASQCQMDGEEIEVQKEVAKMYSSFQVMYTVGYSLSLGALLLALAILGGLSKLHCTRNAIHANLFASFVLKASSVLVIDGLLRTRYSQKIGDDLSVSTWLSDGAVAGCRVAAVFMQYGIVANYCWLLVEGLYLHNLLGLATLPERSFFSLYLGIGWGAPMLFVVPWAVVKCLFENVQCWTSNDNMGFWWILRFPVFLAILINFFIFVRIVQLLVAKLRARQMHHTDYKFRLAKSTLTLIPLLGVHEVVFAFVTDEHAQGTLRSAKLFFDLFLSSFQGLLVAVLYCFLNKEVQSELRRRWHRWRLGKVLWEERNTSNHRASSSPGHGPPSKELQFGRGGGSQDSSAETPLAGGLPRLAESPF
- ASSAY_TEXT: cell-based or functional assay
Bridge positions count the residues as written; N and C are the ends. Square brackets hold non-standard residues; d marks the D form. Ends that are not written are not given here. * marks the point of attachment. Acetyl(2-(4-imidazolyl)) = O=C(Cc1c[nH]cn1)*; Aib = CC(C)(N)C(=O)O

Please review the following examples before continuing.
* {Acetyl(2-(4-imidazolyl))}-[Aib]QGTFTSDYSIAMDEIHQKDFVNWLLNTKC (bridge 15-19) [Triple agonist of SEQ ID NO: 94] | < 0.1%
* {Acetyl(2-(4-imidazolyl))}-[Aib]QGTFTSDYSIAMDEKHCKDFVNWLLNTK (bridge 15-19) [Triple agonist of SEQ ID NO: 60] | < 0.1%

Turning to the following binder.
Looking up {Acetyl(2-(4-imidazolyl))}-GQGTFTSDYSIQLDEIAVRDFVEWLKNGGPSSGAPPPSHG [Triple agonist of SEQ ID NO: 14] , I see its In vitro activity compared to native peptide (%) vs Glucagon listed as < 0.1%
